test-target: human GPR43 (Homo sapiens)
measurement-notes: Ca-Flux Functional Assay: Determination of Agonist/Positive Allosteric Modulator (PAM) Activity
run-conditions: CHO-K1 Gα16 cells stably expressing human GPR43; compound added in the presence of EC20 sodium acetate; intracellular Ca2+ by FLIPR; agonist/PAM activity not distinguished
Let's look at some compounds and their measured EC50.
# value in nM; strip the unit string

compound: CC1CCN(S(=O)(=O)c2c(N)n(C3CCCCC3)c3nccnc23)CC1 [Example 62]
measured-property: EC50
result-number: 303
--
compound: Nc1c(S(=O)(=O)N2CCCOCC2)c2nccnc2n1C1CCCCC1 [Example 72]
measured-property: EC50
result-number: 1800
--
compound: CC1(C)CCN(S(=O)(=O)c2c(N)n(C3CCCCC3)c3nccnc23)CC1 [Example 66]
measured-property: EC50
result-number: 327
--
compound: Nc1c(S(=O)(=O)c2ccccc2)c2nccnc2n1CCC1CCC1 [Example 50]
measured-property: EC50
result-number: 760

Provide EC50 value for the following compound: Nc1c(S(=O)(=O)c2ccc(F)cc2)c2nccnc2n1C1CCCCC1 [Example 6]
301

* * *

test-target: human GPR43 (Homo sapiens, UniProt O15552)
Sequence (O15552 whole entry): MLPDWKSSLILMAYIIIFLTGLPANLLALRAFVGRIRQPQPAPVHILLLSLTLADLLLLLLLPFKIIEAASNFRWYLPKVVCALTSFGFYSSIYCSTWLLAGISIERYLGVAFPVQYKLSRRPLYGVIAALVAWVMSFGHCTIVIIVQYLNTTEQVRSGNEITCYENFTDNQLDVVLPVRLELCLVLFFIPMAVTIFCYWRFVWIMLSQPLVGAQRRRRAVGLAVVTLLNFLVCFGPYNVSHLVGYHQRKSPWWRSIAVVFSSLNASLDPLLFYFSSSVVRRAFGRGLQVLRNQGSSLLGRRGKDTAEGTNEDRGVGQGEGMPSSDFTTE
measurement-notes: Ca-Flux Functional Assay: Determination of Agonist/Positive Allosteric Modulator (PAM) Activity
run-conditions: CHO-K1 Gα16 cells stably expressing human GPR43; compound added in the presence of EC20 sodium acetate; intracellular Ca2+ by FLIPR; agonist/PAM activity not distinguished
Parameter: pEC50. Scope: all listed entries.
Note on units: pEC50 is unitless, being -log10 of a concentration expressed in mol/L.

Observe how each entry below is paired with its result.
compound: Nc1c(S(=O)(=O)c2cccs2)c2nccnc2n1C1CCCCC1
measured-property: pEC50
result-number: 6.93
//
compound: Nc1c(S(=O)(=O)N2CCSCC2)c2nccnc2n1C1CCCCC1
measured-property: pEC50
result-number: 6.47
//
compound: Nc1c(S(=O)(=O)N2Cc3ccccc3C2)c2nccnc2n1C1CCCCC1
measured-property: pEC50
result-number: 6.76
//
compound: CC1(C)CCN(S(=O)(=O)c2c(N)n(C3CCCCC3)c3nccnc23)C1
measured-property: pEC50
result-number: 5.93
//
compound: COCCNS(=O)(=O)c1c(N)n(C2CCCCC2)c2nccnc12
measured-property: pEC50
result-number: 5.21
//
compound: N#Cc1ccc(S(=O)(=O)c2c(N)n(C3CCCCC3)c3nccnc23)cc1
measured-property: pEC50
result-number: 6.31
//
compound: Nc1c(S(=O)(=O)c2ccccc2)c2cccnc2n1C1CCCCC1
measured-property: pEC50
result-number: 6.42
//
compound: Nc1c(S(=O)(=O)NCc2ccccc2)c2nccnc2n1C1CCCCC1
measured-property: pEC50
result-number: 5.48
//
compound: Nc1c(S(=O)(=O)N2CCC(O)CC2)c2nccnc2n1C1CCCCC1
measured-property: pEC50
result-number: 5.24
//
compound: Nc1c(S(=O)(=O)c2ccccc2)c2ncncc2n1C1CCCCC1
measured-property: pEC50
result-number: 5.75

Kindly review the next compound as well.
Dear colleague, please send me the reported pEC50 for CC1CCCN1S(=O)(=O)c1c(N)n(C2CCCCC2)c2nccnc12 (stereo not shown) when you can.
5.83

* * *

EC50 for assorted molecules
test-target: human GPR43 (Homo sapiens)
measurement-notes: Ca-Flux Functional Assay: Determination of Agonist/Positive Allosteric Modulator (PAM) Activity
run-conditions: CHO-K1 Gα16 cells stably expressing human GPR43; compound added in the presence of EC20 sodium acetate; intracellular Ca2+ by FLIPR; agonist/PAM activity not distinguished
Quick note: give the figure in nM, leave out the unit.

Some molecules with recorded EC50:
molecule: Nc1c(S(=O)(=O)c2ccccc2)c2ncccc2n1C1CCCCC1
test-target: human GPR43 (Homo sapiens)
EC50 [nM]: 1250
//
molecule: Nc1c(S(=O)(=O)NCC2CC2)c2nccnc2n1C1CCCCC1
test-target: human GPR43 (Homo sapiens)
EC50 [nM]: 658
//
molecule: Nc1c(S(=O)(=O)c2ccccc2)c2ncnc(O)c2n1C1CCC(F)(F)CC1
test-target: human GPR43 (Homo sapiens)
EC50 [nM]: 6940
//
molecule: Nc1c(S(=O)(=O)N2CCC(CO)CC2)c2nccnc2n1C1CCCCC1
test-target: human GPR43 (Homo sapiens)
EC50 [nM]: 3050
//
molecule: Nc1c(S(=O)(=O)c2ccccc2)c2cccnc2n1C1CCC(F)(F)CC1
test-target: human GPR43 (Homo sapiens)
EC50 [nM]: 559

For the molecule COc1nccc2c(S(=O)(=O)c3ccccc3)c(N)n(C3CCCCC3)c12 , report EC50.
245

Fill in EC50 for record CC1CN(S(=O)(=O)c2c(N)n(C3CCCCC3)c3nccnc23)CC(C)O1 (mixture of isomers)
1530

Supply recorded EC50 for Nc1c(S(=O)(=O)N2CCN(C(=O)c3ccc(F)cc3)CC2)c2nccnc2n1C1CCCCC1 here.
2810

Determine its reported EC50: COc1cccc(S(=O)(=O)c2c(N)n(C3CCCCC3)c3nccnc23)c1
295

Supply reported EC50 belonging to this molecule: COc1ccc(S(=O)(=O)c2c(N)n(C3CCCCC3)c3nccnc23)cn1
4560

Complete the entry with EC50 for CCCNS(=O)(=O)c1c(N)n(C2CCCCC2)c2nccnc12
792

Let me know recorded EC50 for CC1CCCCC1n1c(N)c(S(=O)(=O)c2ccccc2)c2nccnc21 (mixture of isomers) , thanks.
1080

Give a short answer stating reported EC50 for CC(C)(C)CCn1c(N)c(S(=O)(=O)c2ccccc2)c2nccnc21 .
822

Dear colleague, please send me the reported EC50 for CCC1(Cn2c(N)c(S(=O)(=O)c3ccccc3)c3nccnc32)CC1 when you can.
7170

* * *

test-target: human GPR43 (Homo sapiens, UniProt O15552)
measurement-notes: Ca-Flux Functional Assay: Determination of Agonist/Positive Allosteric Modulator (PAM) Activity
run-conditions: CHO-K1 Gα16 cells stably expressing human GPR43; compound added in the presence of EC20 sodium acetate; intracellular Ca2+ by FLIPR; agonist/PAM activity not distinguished
measured-property: pEC50
In simple prose, pEC50 is minus the logarithm base ten of a concentration in moles per litre.

Observe how each entry below is paired with its result.
compound: Nc1c(S(=O)(=O)N2CCCC2)c2nccnc2n1C1CCCCC1
result-number: 5.65
//
compound: Nc1c(S(=O)(=O)N2CCCCC2)c2nccnc2n1C1CCCCC1
result-number: 6.59

Please supply the value of reported pEC50 for the item CN(C)c1ncnc2c(S(=O)(=O)c3ccccc3)c(N)n(C3CCCCC3)c12
5.22

Report measured pEC50; entry is Nc1c(S(=O)(=O)N2CCC(c3ccccc3)C2)c2nccnc2n1C1CCCCC1 (stereo not drawn)
5.77

// fetch pEC50 given entry CC1(C)CC1Cn1c(N)c(S(=O)(=O)c2ccccc2)c2nccnc21 (stereo not drawn)
5.88

Let me know recorded pEC50 for Nc1c(S(=O)(=O)c2ccccc2)c2ncnc(OCc3ccccc3)c2n1C1CCC(F)(F)CC1 , thanks.
6.70

Query pEC50 for Nc1c(S(=O)(=O)N2CC(N3CCCCC3)C2)c2nccnc2n1C1CCCCC1
5.41

Return reported pEC50. Input compound: Nc1c(S(=O)(=O)c2ccc(OC(F)(F)F)cc2)c2nccnc2n1C1CCCCC1
5.97

Provide one value: measured pEC50 of CN1CCN(S(=O)(=O)c2c(N)n(C3CCCCC3)c3nccnc23)CC1
5.10

* * *

test-target: human GPR43 (Homo sapiens)
measurement-notes: Ca-Flux Functional Assay: Determination of Agonist/Positive Allosteric Modulator (PAM) Activity
run-conditions: CHO-K1 Gα16 cells stably expressing human GPR43; compound added in the presence of EC20 sodium acetate; intracellular Ca2+ by FLIPR; agonist/PAM activity not distinguished
pEC50: −log10 of the molar value.
Param threshold (6) applies to pEC50; output criterion met when value >= threshold, criterion not met when value < threshold.

compound: Nc1c(S(=O)(=O)NCC2CCCO2)c2nccnc2n1C1CCCCC1 (stereo not drawn)
category: criterion not met

compound: CCOc1ncnc2c(S(=O)(=O)c3ccccc3)c(N)n(C3CCC(F)(F)CC3)c12
category: criterion met

Does the compound Nc1c(S(=O)(=O)N2CCC(OCC3CC3)CC2)c2nccnc2n1C1CCCCC1 have recorded pEC50 that is 6 or more?
criterion met

Does the reported pEC50 for COc1ncnc2c(S(=O)(=O)c3ccccc3)c(N)n(C3CCCC3)c12 fall at or above the 6 mark?
criterion not met

# bool: pEC50 of Nc1c(S(=O)(=O)c2ccccc2)c2nccnc2n1C1CCCOC1 (stereo not drawn) >= 6
criterion not met

API: above_or_equal(metric=pEC50, cutoff=6) for item Nc1c(S(=O)(=O)C2CC2)c2nccnc2n1C1CCCCC1
criterion not met

State whether the measured pEC50 reaches 6, counting equality as reaching it, for Nc1c(S(=O)(=O)c2ccccc2F)c2nccnc2n1C1CCCCC1
criterion met

Dear colleague, could you confirm whether COc1ncnc2c(S(=O)(=O)c3ccccc3)c(N)n(C3CCOCC3)c12 has pEC50 at or above 6?
criterion not met

Dear colleague, could you confirm whether Nc1c(S(=O)(=O)c2ccccc2)c2nccnc2n1C1CCC(F)(F)CC1 has pEC50 at or above 6?
criterion met

Reported pEC50 at or above 6? Nc1c(S(=O)(=O)N2CCN(CC(F)(F)F)CC2)c2nccnc2n1C1CCCCC1
criterion met

pEC50 >= 6 for Nc1c(S(=O)(=O)c2ccccc2)c2nccnc2n1CCc1ccccc1 ?
criterion not met

Has Cc1ccc(S(=O)(=O)c2c(N)n(C3CCCCCC3)c3nccnc23)cc1 a recorded pEC50 greater than or equal to 6?
criterion met

Entry COc1nc(C)nc2c(S(=O)(=O)c3ccccc3F)c(N)n(C3CCCCC3)c12 : is its pEC50 no less than 6?
criterion met

Textbook exercise: given the entry COC(=O)Nc1c(S(=O)(=O)c2ccccc2)c2nccnc2n1C1CCCCC1 , state whether its pEC50 is greater than or equal to 6.
criterion not met

Hi team, for COc1ccc(S(=O)(=O)c2c(N)n(C3CCC(F)(F)CC3)c3nccnc23)cc1 , is the recorded pEC50 at or above 6?
criterion met

Please tell me: is the compound Nc1c(S(=O)(=O)N2C3CCC2CC(O)C3)c2nccnc2n1C1CCCCC1 (stereo not drawn) at or over 6 in terms of pEC50?
criterion not met
